Tested on: HCT-116 colon
Protocol text: NCI tumour cell line growth inhibition, 48 h
Recorded TGI by entry
Measured property: TGI (µM)

> print(dat)
                                   molecule  measured.property  cmp  recorded.result
1  O=c1ncccn1C1OC(CO)C(O)C1O (stereo unspecified)                TGI    >              100
2  CC(=O)[O-].[Mn+3].[O-]c1ccccc1C=NCCNCCN=Cc1ccccc1[O-]                TGI    >              100
3     CN1CCc2c1nc(-c1ccc(Cl)cc1)c1c2N(C)CC1                TGI    =             18.9
4  CN(Cc1cnc2nc(N)nc(N)c2n1)c1ccc(C(=O)NC(CO)CCCO)cc1 (stereo unspecified)                TGI    >              100
5        Cc1c2cc(Cl)c3ccccc3c2c[n+]2ccccc12                TGI    =             32.9
6  c1ccc(-c2nc(N3CCOCC3)c3c4c(sc3n2)CCCCCC4)nc1                TGI    =             15.3

* * *

Recorded TGI by entry
Test system: UACC-257 melanoma
Protocol text: NCI tumour cell line growth inhibition, 48 h
Measured property: TGI (µM)

> print(dat)
                                    compound  measured.property  unit.of.measure  cmp  recorded.result
 1  COc1cc(C2C(Cl)C(=O)N2c2c(C)n(C)n(-c3ccccc3)c2=O)ccc1O (stereo not given)                TGI               µM    =             40.7
 2  C=CCC1C(O[Si](C)(C)C(C)(C)C)C(CO[Si](C)(C)C(C)(C)C)OC1n1ccc(=O)[nH]c1=O (stereo not given)                TGI               µM    =             3.37
 3  Cc1nn(-c2ccccc2)c(C)c1/C=N/N=C1\S/C(=C\c2ccc(Cl)cc2)C(=O)N1c1ccccc1                TGI               µM    >              100
 4  CCOC(=O)N1CCc2cc(OC)c(OC)cc2/C1=C\c1ccc(OC)c(OC)c1                TGI               µM    =             53.8
 5  CC(Oc1ccccc1Cl)C(=O)NN1C(=O)CSC1c1ccccc1 (stereo not given)                TGI               µM    >              100
 6      S=c1nc(N/N=C/c2ccco2)c2cn[nH]c2[nH]1                TGI               µM    >              100
 7    CC1=Nc2ccccc2/C1=C\c1c(C)[nH]c2ccccc12                TGI               µM    =             30.3
 8  C/C(=N\Nc1nc2cc(C(F)(F)F)ccc2s1)c1ccccn1                TGI               µM    >             31.2
 9  COc1cccc(N=N/C(=N\NC(=O)c2ccc(C)cc2)c2ccc(N(CCC#N)CCC#N)cc2C)c1                TGI               µM    >              100
10  NNC(=O)C1(NC(=O)c2ccccc2)C(c2ccccc2)C(c2ccccc2)=NN1c1ccccc1 (stereo not given)                TGI               µM    >              100
